assay: logP determination by HPLC (EEC Directive 79/831 Annex V. A8); type: physicochemical; conditions: HPLC gradient method, acetonitrile/0.1% aqueous phosphoric acid
Listed compounds paired with reported chromatographic logP
metric: chromatographic logP

INSERT INTO assay_data (compound, metric, measured_value) VALUES
  ('CNC(=O)/C(=N\OCF)c1ccccc1Oc1ncnc(Oc2ccccc2C#N)c1F [Example 10]', 'chromatographic logP', 2.8),
  ('CNC(=O)/C(=N\OCF)c1ccccc1Oc1nc(-c2ccc(C(F)(F)F)cc2)ns1 [Example 19]', 'chromatographic logP', 3.7),
  ('CNC(=O)C(=NOCF)c1ccccc1O [Example (II-2)]', 'chromatographic logP', 1.1),
  ('CNC(=O)/C(=N\OCF)c1ccccc1Oc1ncnc(Oc2cccc(Cl)c2C)c1F [Example 4]', 'chromatographic logP', 3.5),
  ('CNC(=O)C(=NOCF)c1ccccc1Oc1nc(-c2ccccc2)ns1 [Example 3]', 'chromatographic logP', 2.9),
  ('CNC(=O)/C(=N\OCF)c1ccccc1Oc1nc(-c2ccc(OC(F)(F)F)cc2)ns1 [Example 22]', 'chromatographic logP', 3.8),
  ('CNC(=O)/C(=N\OCF)c1ccccc1Oc1nc(-c2cccc(C(F)(F)F)c2)ns1 [Example 28]', 'chromatographic logP', 3.6),
  ('CNC(=O)/C(=N\OCF)c1ccccc1Oc1ncnc(Oc2ccccc2C)c1F [Example 11]', 'chromatographic logP', 3),
  ('COC(=O)C(=NOCF)c1ccccc1OC1CCCCO1 (stereo not drawn) [Example (VI-1)]', 'chromatographic logP', 2.8);

====

test: logP determination by HPLC (EEC Directive 79/831 Annex V. A8); type: physicochemical; conditions: HPLC gradient method, acetonitrile/0.1% aqueous phosphoric acid
Use 3 as the dividing line for chromatographic logP, with the line itself on the MET side and lower values as NOT MET.

INSERT INTO results (input_smiles, class_assignment) VALUES
  ('CNC(=O)/C(=N\OCF)c1ccccc1Oc1ncnc(Oc2cccc(C)c2C)c1F', 'MET'),
  ('COC(=O)C(=NOCF)c1ccccc1O', 'NOT MET'),
  ('CNC(=O)/C(=N\OCF)c1ccccc1Oc1ncnc(Oc2cccc(C)c2Cl)c1F', 'MET'),
  ('CNC(=O)/C(=N\OCF)c1ccccc1Oc1ncnc(Oc2ccccc2OC(F)F)c1F', 'NOT MET'),
  ('CNC(=O)/C(=N\OCF)c1ccccc1Oc1nc(-c2cccc(OC(F)(F)F)c2)ns1', 'MET'),
  ('CNC(=O)/C(=N\OCF)c1ccccc1Oc1nc(-c2ccc(OC(F)F)cc2)ns1', 'MET');
